Source: paper PMC9506420

Examples of compounds with documented S (%) follow.
- Test system: HeLa cells
- assay_text: Cell cycle distribution by flow cytometry (propidium iodide), HeLa
- Format: cell-based, human
- stated_conditions: HeLa, 10 μg/mL, 24 h; control 12.5 ± 1.7
- Method: One of the indicators of the influence of biologically active products on the cells is the changed distribution of cells during different stages of the cell cycle. […] The distribution of HeLa and CT26 cells in the G0/G1-, S-, and G2/M-phases of the cell cycle was obtained by quantification of DNA content in propidium-iodide-stained cells using flow cytometry. […] After washing, the samples were analyzed by standard flow cytometer (BD FACSCanto II, Becton Dickinson, San Jose, CA, USA). […]
Value expressed in %; do not type the unit.

Example results:
>>> print(df.to_string())
                           molecular_string  quantitative_readout
0  CCC[C@@H]1NC2(C(=O)NC(=O)NC2=O)[C@]2(c3ccccc3)[C@@H](c3ccccc3)[C@]12c1ccccc1                  15.5
1  CSCC[C@@H]1NC2(C(=O)NC(=O)NC2=O)[C@]2(c3ccccc3)[C@@H](c3ccccc3)[C@]12c1ccccc1                  13.9
2  CCCCCC[C@@H]1NC2(C(=O)NC(=O)NC2=O)[C@]2(c3ccccc3)[C@@H](c3ccccc3)[C@]12c1ccccc1                  13.3
3  CC[C@@H]1NC2(C(=O)NC(=O)NC2=O)[C@]2(c3ccccc3)[C@@H](c3ccccc3)[C@]12c1ccccc1                  17.6
4  CCCC[C@@H]1NC2(C(=O)NC(=O)NC2=O)[C@]2(c3ccccc3)[C@@H](c3ccccc3)[C@]12c1ccccc1                  16.7
5  O=C1NC(=O)C2(N[C@@H](c3ccccc3)[C@@]3(c4ccccc4)[C@H](c4ccccc4)[C@@]23c2ccccc2)C(=O)N1                  18.1

With those in mind, consider the next compound.
Query :: Would you kindly share the measured S (%) for `CC(C)C[C@@H]1NC2(C(=O)NC(=O)NC2=O)[C@]2(c3ccccc3)[C@@H](c3ccccc3)[C@]12c1ccccc1` ?
Result :: 15.2
